- targetSystem: Gonadotropin-releasing hormone receptor (Macaca mulatta)
- assayName: […] inhibition of monkey Gonadotropin releasing hormone receptor
pKi: −log10 of the molar value.
property: pKi

[[record]]
compoundsmiles = "COc1cccc(-c2c(C)n(Cc3c(F)cccc3F)c(=O)n(C[C@@H](C)NCc3nccs3)c2=O)c1F"
property = "pKi"
numericreadout = 6.09

